Where do the numbers come from? From patent US5389643A.

In this section we review reported Kb values for a set of molecules.
- Measured On: 2-methylserotonin-induced contraction of the ileum (5-HT3 antagonism) (Cavia porcellus, UniProt O70212)
- Construct: from tissue; host or cells: isolated nonterminal ileum of male Hartley guinea pig
- Sequence (O70212 20-490): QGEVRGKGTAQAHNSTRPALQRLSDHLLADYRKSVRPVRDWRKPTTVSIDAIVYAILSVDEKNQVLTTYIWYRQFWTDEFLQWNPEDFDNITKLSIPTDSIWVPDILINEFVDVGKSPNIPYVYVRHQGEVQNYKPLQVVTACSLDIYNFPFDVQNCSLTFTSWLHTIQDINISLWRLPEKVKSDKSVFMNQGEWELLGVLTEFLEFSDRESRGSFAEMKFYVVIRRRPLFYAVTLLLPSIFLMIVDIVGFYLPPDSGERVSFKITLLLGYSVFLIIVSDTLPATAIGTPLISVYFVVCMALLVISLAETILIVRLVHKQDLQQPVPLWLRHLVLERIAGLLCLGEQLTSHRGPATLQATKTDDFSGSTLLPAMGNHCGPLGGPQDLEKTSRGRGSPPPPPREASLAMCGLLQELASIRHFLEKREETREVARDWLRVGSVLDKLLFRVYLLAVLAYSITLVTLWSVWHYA
- Assay Text: Antagonism against 2-methylserotonin-induced contraction or systole of ileum
- Assay type: cell-based, guinea pig (Hartley male)
- Condition Notes: test compound added 30 minutes before 2-methylserotonin; nonterminal ileum, 37° C.; read-out: pA2 (converted)
Structures can show the parent of a compound that is named as a salt.
Test Readout: Kb (nM)

CC#CC(C)Oc1cc(N)c(Cl)cc1C(=O)N[C@H]1C[C@H]2CC[C@@H](C1)N2C (some centres unmarked) [Example 2, hydrochloride]; 2.09
C#CC(CC)Oc1cc(N)c(Cl)cc1C(=O)N[C@H]1C[C@H]2CC[C@@H](C1)N2C (single isomer, unassigned; (+)) [Example 38, hydrochloride]; 0.955
CC#CC(C)Oc1cc(N)c(Cl)cc1C(=O)N[C@H]1C[C@H]2CC[C@@H](C1)N2C (single isomer, unassigned; (-)) [Example 4, hydrochloride]; 2.69
CC#CC(CC)Oc1cc(N)c(Cl)cc1C(=O)N[C@H]1C[C@H]2CC[C@@H](C1)N2C (some centres unmarked) [Example 27, hydrochloride]; 0.407
C#CCC(C)Oc1cc(N)c(Cl)cc1C(=O)N[C@H]1C[C@H]2CC[C@@H](C1)N2C (single isomer, unassigned; (+)) [Example 42, hydrochloride]; 1.2
